MEASUREMENT_PROTOCOL: Cytotoxicity against human colon cancer cells
Type: functional
EXPERIMENTAL_SETUP: Cancer cell lines, read-out: pTGI (converted)
Hi! Just check whether TGI is below 20 µM. Below gives y, equal or above gives n.

{"SMILES_STRUCTURE": "O=C1Nc2ccc(Cl)cc2/C1=C\\c1cccc(/C=C2/C(=O)Nc3ccc(Cl)cc32)n1", "ASSIGNED_CATEGORY": "y"}
{"SMILES_STRUCTURE": "O=C1Nc2ccc(F)cc2/C1=C\\c1cccc(/C=C2/C(=O)Nc3ccc(F)cc32)n1", "ASSIGNED_CATEGORY": "y"}
{"SMILES_STRUCTURE": "CN1C(=O)/C(=C/c2cccc(/C=C3/C(=O)N(C)c4ccccc43)n2)c2ccccc21", "ASSIGNED_CATEGORY": "n"}
{"SMILES_STRUCTURE": "CN(C)c1ccc2c(c1)/C(=C\\c1cccc(/C=C3/C(=O)Nc4ccc(N(C)C)cc43)n1)C(=O)N2", "ASSIGNED_CATEGORY": "n"}
{"SMILES_STRUCTURE": "O=C1Nc2ccc(Br)cc2/C1=C\\c1cccc(/C=C2/C(=O)Nc3ccc(Br)cc32)n1", "ASSIGNED_CATEGORY": "n"}

---

MEASUREMENT_PROTOCOL: Cytotoxicity against human central nervous system cancer cells
Assay type: functional
EXPERIMENTAL_SETUP: Cancer cell lines, read-out: pTGI (converted)
Here the recorded TGI is given for each entry.

{"SMILES_STRUCTURE": "O=C1Nc2ccc(C(=O)O)cc2/C1=C\\c1cccc(/C=C2/C(=O)Nc3ccc(C(=O)O)cc32)n1", "TGI / µM": 87.1}
{"SMILES_STRUCTURE": "O=C1Nc2ccc(F)cc2/C1=C\\c1cccc(/C=C2/C(=O)Nc3ccc(F)cc32)n1", "TGI / µM": 11.5}
{"SMILES_STRUCTURE": "CN1C(=O)/C(=C/c2cccc(/C=C3/C(=O)N(C)c4ccccc43)n2)c2ccccc21", "TGI / µM": 29.5}
{"SMILES_STRUCTURE": "CN(C)c1ccc2c(c1)/C(=C\\c1cccc(/C=C3/C(=O)Nc4ccc(N(C)C)cc43)n1)C(=O)N2", "TGI / µM": 44.7}
